- System: laser-induced CNV in rats
- experiment_description: Laser-induced choroidal neovascularization in rats (CNV area, fluorescein angiography grades)
- Format: in vivo, Brown Norway rats
- condition_summary: day 14; unobstructed lesions; 200 μg/eye (echistatin 5 μg, Avastin 125 μg)
Param threshold (4) applies to Number of lesions in FA grade 3; output t when value >= threshold, f when value < threshold.

>>> label_class("COc1c(NC[C@H](NC(=O)OCc2ccccc2)C(=O)O)ncnc1N1CCC(c2ccc3c(n2)NCCC3)CC1")
"t"
>>> label_class("Cc1nc(NC[C@H](NC(=O)OCC2CCCCC2)C(=O)O)c(C)c(N2CCC(c3ccc4c(n3)NCCC4)CC2)n1")
"t"

Q: Textbook exercise: given the entry CCc1nc(NC[C@H](NC(=O)OCc2ccccc2)C(=O)O)c(C)c(N2CCC(c3ccc4c(n3)NCCC4)CC2)n1 , state whether its Number of lesions in FA grade 3 is greater than or equal to 4.
Ans: f

Q: Textbook exercise: given the entry COc1ccc(CCOC(=O)N[C@@H](CNc2nc(C)nc(N3CCC(c4ccc5c(n4)NCCC5)CC3)c2C)C(=O)O)cc1 , state whether its Number of lesions in FA grade 3 is greater than or equal to 4.
Ans: f

---

- Test system: laser-induced CNV in rats
- experiment_description: Laser-induced choroidal neovascularization in rats (CNV area, fluorescein angiography grades)
- Assay type: in vivo, Brown Norway rats
- condition_summary: day 14; unobstructed lesions; 200 μg/eye (echistatin 5 μg, Avastin 125 μg)
metric: Number of lesions in FA grade 4
Numbers only.

>>> value_observed("CCc1nc(NC[C@H](NC(=O)OCc2ccccc2)C(=O)O)c(C)c(N2CCC(c3ccc4c(n3)NCCC4)CC2)n1")
1
>>> value_observed("COc1c(NC[C@H](NC(=O)OCc2ccccc2)C(=O)O)ncnc1N1CCC(c2ccc3c(n2)NCCC3)CC1")
1
>>> value_observed("COc1ccc(CCOC(=O)N[C@@H](CNc2nc(C)nc(N3CCC(c4ccc5c(n4)NCCC5)CC3)c2C)C(=O)O)cc1")
0
>>> value_observed("Cc1nc(NC[C@H](NC(=O)OCC2CCCCC2)C(=O)O)c(C)c(N2CCC(c3ccc4c(n3)NCCC4)CC2)n1")
10
>>> value_observed("COc1ccc(S(=O)(=O)N[C@@H](CNc2nc(C)nc(N3CCC(c4ccc5c(n4)NCCC5)CC3)c2C)C(=O)O)cc1")
2

Would you kindly look at the next entry?
Q: Note Number of lesions in FA grade 4 for the compound shown: CC1(C)O[C@@H]2C[C@H]3[C@@H]4CCC5=CC(=O)C=C[C@]5(C)[C@@]4(F)[C@@H](O)C[C@]3(C)[C@]2(C(=O)CO)O1 [TA, triamcinolone acetonide, reference compound]
Ans: 0

---

- experiment_description: Ocular clinical findings in rats 14 days after intravitreal injection
- condition_summary: Day 14; 200 μg/eye intravitreal
Consider the following compounds; for each one, report its Eyes with retinal vascular congestion/vessel-observable eyes.

>>> value_observed("Cc1nc(NC[C@H](NC(=O)OCC2CCCCC2)C(=O)O)c(C)c(N2CCC(c3ccc4c(n3)NCCC4)CC2)n1")
"0/4"
>>> value_observed("COc1ccc(CCOC(=O)N[C@@H](CNc2nc(C)nc(N3CCC(c4ccc5c(n4)NCCC5)CC3)c2C)C(=O)O)cc1")
"1/1"
>>> value_observed("COc1c(NC[C@H](NC(=O)OCc2ccccc2)C(=O)O)ncnc1N1CCC(c2ccc3c(n2)NCCC3)CC1")
"4/5"
>>> value_observed("COc1ccc(S(=O)(=O)N[C@@H](CNc2nc(C)nc(N3CCC(c4ccc5c(n4)NCCC5)CC3)c2C)C(=O)O)cc1")
"0/5"

Q: Note Eyes with retinal vascular congestion/vessel-observable eyes for the compound shown: CCc1nc(NC[C@H](NC(=O)OCc2ccccc2)C(=O)O)c(C)c(N2CCC(c3ccc4c(n3)NCCC4)CC2)n1
Ans: 2/2

---

- experiment_description: Ocular clinical findings in rats 14 days after intravitreal injection
- condition_summary: Day 14; 200 μg/eye intravitreal
metric: Eyes with anterior chamber inflammation/Total eyes

Sample answers from the record:
>>> value_observed("Cc1nc(NC[C@H](NC(=O)OCC2CCCCC2)C(=O)O)c(C)c(N2CCC(c3ccc4c(n3)NCCC4)CC2)n1 [BOL-303051-X]")
"3/6"
>>> value_observed("COc1c(NC[C@H](NC(=O)OCc2ccccc2)C(=O)O)ncnc1N1CCC(c2ccc3c(n2)NCCC3)CC1 [BOL-303054-X]")
"4/6"

Each molecule below has a reported value. Please supply its Eyes with anterior chamber inflammation/Total eyes.
1. CCc1nc(NC[C@H](NC(=O)OCc2ccccc2)C(=O)O)c(C)c(N2CCC(c3ccc4c(n3)NCCC4)CC2)n1 [BOL-303055-X]
2. COc1ccc(S(=O)(=O)N[C@@H](CNc2nc(C)nc(N3CCC(c4ccc5c(n4)NCCC5)CC3)c2C)C(=O)O)cc1 [BOL-303050-X]

Ans:
["5/6", "0/6"]

Q: Note Eyes with anterior chamber inflammation/Total eyes for the molecule shown: COc1ccc(CCOC(=O)N[C@@H](CNc2nc(C)nc(N3CCC(c4ccc5c(n4)NCCC5)CC3)c2C)C(=O)O)cc1 [BOL-303049-X]
Ans: 6/6
